All values here come from patent US7598255B2.

These compounds were tested on rat 5-HT7a receptor (Rattus norvegicus); Ki is the recorded read-out.

COMPOUND	TARGET_OF_ASSAY	VALUE_OBSERVED
CC(C)c1nc(-c2ccc(Cl)cc2)c2c(n1)C(C)CN(Cc1ccccc1)C2 (stereo not drawn)	rat 5-HT7a receptor (Rattus norvegicus)	> 10 µM
N#Cc1ccc(-c2nc(Cc3ccc(F)cc3)nc3c2CNCC3)cc1	rat 5-HT7a receptor (Rattus norvegicus)	> 10 µM
Cc1ccc(-c2cc(CN(C)C)nc(Cc3ccccc3)n2)cc1	rat 5-HT7a receptor (Rattus norvegicus)	> 10 µM
CC(C)(C)c1nc2c(c(-c3ccc(F)cc3)n1)CNCC2	rat 5-HT7a receptor (Rattus norvegicus)	0.54 µM
CC(C)c1nc2c(c(-c3ccc(C(F)(F)F)cc3)n1)CNCC2	rat 5-HT7a receptor (Rattus norvegicus)	> 10 µM

Now take the following compound into account.
Considering Fc1ccc(Cc2nc3c(c(-c4ccc(F)cc4)n2)CNCC3)cc1 , its Ki with rat 5-HT7a receptor (Rattus norvegicus) was recorded as > 10 µM

###

Molecular target: human recombinant 5-HT2C receptor (Homo sapiens)
Experiment: Affinity for 5HT2 receptor binding sites, h5-HT2C, [3H]mesulergine
Settings: CHO h5-HT2C membranes
Counter-ions that a name gives are not always drawn.
REPORTED_PROPERTY: Ki

Examples with their reported Ki follow.
COMPOUND	Ki
Cc1ccc(-c2nc(CC(C)C)nc3c2CNCC3)cc1	800 nM
CCC(C)c1nc2c(c(-c3ccc(OC)cc3)n1)CNCC2 (stereo not shown)	1000 nM
CC(C)c1nc2c(c(-c3ccc(F)cc3)n1)CN(C)CC2	1300 nM
CN1CCc2c(nc(Cc3ccccc3)nc2-c2ccc(F)cc2)C1 [Example 82, hydrochloride]	20 nM
Fc1ccc(-c2nc(C3CC3)nc3c2CNCC3)cc1	900 nM

Now take the following compound into account.
Ki measured on Fc1ccc(-c2nc(Cc3ccccc3)nc3c2CNCCC3)cc1 [Example 69, hydrochloride] = 650 nM

###

pKi listing for selected molecules.
Biological target: UniProtKB P28223
Where a name gives a salt, the structure may show the parent alone.
Kindly note that pKi refers to -log10 of the concentration in mol/L and answer with the value alone.

MOLECULE	REPORTED_PROPERTY	VALUE_OBSERVED
CC(C)c1nc(-c2ccc(F)cc2)c2c(n1)C(C)CNC2 (stereo not shown) [Example 100, hydrochloride]	pKi	7.85
CNCCc1cc(-c2ccc(F)cc2)nc(C(C)(C)C)n1 [Example 166]	pKi	7.96
Fc1ccc(-c2nc(Cc3ccccc3)nc3c2CCN(Cc2ccccc2)C3)cc1 [Example 70, hydrochloride]	pKi	6.93
Cc1ccc(-c2nc(C(C)C)nc3c2CCCNC3)cc1 [Example 66, hydrochloride]	pKi	8.10
CC(C)c1nc2c(c(-c3ccccc3)n1)CNCC2 [Example 31]	pKi	7.15
C=C1CN(C)CCc2c1nc(Cc1ccc(F)cc1)nc2-c1ccc(F)cc1 [Example 63]	pKi	8.82
CC(C)(C)c1nc2c(c(-c3ccc(F)cc3)n1)CNCC2 [Example 1]	pKi	8.40
N#Cc1ccc(-c2nc(C3CCCC3)nc3c2CNCC3)cc1 [Example 20]	pKi	6.15

pKi measured on CC(C)c1nc2c(c(-c3ccc(F)cc3)n1)CCN(C)C2 [Example 84, hydrochloride] = 7.85

###

Molecular target: human recombinant 5-HT6 receptor (Homo sapiens, UniProt P50406)
Sequence (P50406 whole entry): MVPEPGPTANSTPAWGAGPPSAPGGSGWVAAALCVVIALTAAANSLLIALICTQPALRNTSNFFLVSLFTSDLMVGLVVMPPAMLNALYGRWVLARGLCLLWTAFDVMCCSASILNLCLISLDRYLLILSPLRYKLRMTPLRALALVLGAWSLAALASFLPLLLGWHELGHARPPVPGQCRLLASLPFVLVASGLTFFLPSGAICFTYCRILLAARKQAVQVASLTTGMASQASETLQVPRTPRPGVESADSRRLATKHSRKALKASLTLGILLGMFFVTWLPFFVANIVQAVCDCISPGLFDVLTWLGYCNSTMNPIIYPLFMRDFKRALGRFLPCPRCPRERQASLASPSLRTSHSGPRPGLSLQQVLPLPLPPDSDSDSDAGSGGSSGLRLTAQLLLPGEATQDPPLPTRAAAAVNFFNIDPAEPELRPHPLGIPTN
Assay: Affinity for 5-HT6 receptor binding sites, [3H]LSD
Settings: HEK-293 h5-HT6 membranes
REPORTED_PROPERTY: pKi
Kindly note that pKi refers to -log10 of the concentration in mol/L and answer with the value alone.

Examples with their reported pKi follow.
MOLECULE	pKi
Fc1ccc(-c2nc(C3CCCC3)nc3c2CCNCC3)cc1	7.00
CN1CCc2nc(C3CCCC3)nc(-c3ccc(F)cc3)c2CC1	7.00
Cc1ccc(-c2nc(Cc3ccccc3)nc3c2CCN(C)CC3)cc1	7.70
FC(F)(F)c1ccc(-c2nc(Cc3ccccc3)nc3c2CCNCC3)cc1	7.52
Fc1ccc(-c2nc(Cc3ccccc3)nc3c2CCNCC3)cc1	7.52

Now take the following molecule into account.
pKi measured on Cc1ccc(-c2nc(C3CCCC3)nc3c2CCNCC3)cc1 = 7.92

###

Target: human recombinant 5-HT2C receptor (Homo sapiens, UniProt P28335)
Sequence (P28335 33-458): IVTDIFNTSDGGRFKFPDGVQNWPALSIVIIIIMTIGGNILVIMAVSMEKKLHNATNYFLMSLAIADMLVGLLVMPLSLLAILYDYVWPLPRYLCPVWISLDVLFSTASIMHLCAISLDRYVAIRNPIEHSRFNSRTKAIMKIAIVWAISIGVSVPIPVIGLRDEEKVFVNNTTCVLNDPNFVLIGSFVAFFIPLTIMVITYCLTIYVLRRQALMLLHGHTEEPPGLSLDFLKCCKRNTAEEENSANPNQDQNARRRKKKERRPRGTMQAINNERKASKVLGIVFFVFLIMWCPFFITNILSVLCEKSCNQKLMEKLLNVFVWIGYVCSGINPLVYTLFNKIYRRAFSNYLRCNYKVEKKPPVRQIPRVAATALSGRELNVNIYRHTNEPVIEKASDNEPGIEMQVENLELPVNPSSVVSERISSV
Assay: Affinity for 5HT2 receptor binding sites, h5-HT2C, [3H]mesulergine
Settings: CHO h5-HT2C membranes
log10 Ki listing for selected compounds.
// do not treat as linear: log10 of Ki, unit nM

Examples with their reported log10 Ki follow.
COMPOUND	log10 Ki
CN(C)CCc1cc(-c2ccc(F)cc2)nc(C(C)(C)C)n1 [Example 167]	2.30
N#Cc1ccc(-c2nc(C3CCCC3)nc3c2CCNCC3)cc1 [Example 49]	2.60

log10 Ki measured on CC(C)Cc1nc2c(c(-c3cccs3)n1)CNCC2 [Example 35] = 3.30

log10 Ki measured on Fc1ccc(-c2nc(C3CCCC3)nc3c2CCNCC3)cc1 [Example 46] = 2.30

log10 Ki measured on Fc1ccc(-c2nc(-c3ccccc3)nc3c2CNCC3)cc1 [Example 117] = 3.60

log10 Ki measured on COc1ccc(-c2nc(C(C)C)nc3c2CNCC3)cc1 [Example 30] = 3.40

log10 Ki measured on COc1ccc(-c2nc(CC(C)C)nc3c2CNCC3)cc1 [Example 41] = 3.70

###

Structures can show the parent of a compound that is named as a salt.
These molecules were tested on rat 5-HT7a receptor (Rattus norvegicus); Ki is the recorded read-out.

Examples with their reported Ki follow.
MOLECULE	TARGET_OF_ASSAY	VALUE_OBSERVED
N#Cc1ccc(-c2nc(C3CCCC3)nc3c2CCNCC3)cc1	rat 5-HT7a receptor (Rattus norvegicus)	0.3 µM
N#Cc1ccc(-c2nc(C3CCCC3)nc3c2CNCC3)cc1	rat 5-HT7a receptor (Rattus norvegicus)	> 10 µM
CC(C)c1nc2c(c(-c3ccsc3)n1)CCNC2 [Example 89, hydrochloride]	rat 5-HT7a receptor (Rattus norvegicus)	> 10 µM

Ki measured on Fc1ccc(-c2nc(Cc3ccccc3)nc3c2CCNC3)cc1 [Example 76, hydrochloride] = 0.15 µM

Ki measured on Fc1ccc(-c2nc(-c3ccccc3)nc3c2CNCC3)cc1 = > 10 µM

Ki measured on CC(C)c1nc(-c2ccc(F)c(Cl)c2)c2c(n1)C(C)CNC2 (stereo not shown) [Example 101, hydrochloride] = > 10 µM

Ki measured on COc1ccc(-c2nc(Cc3ccccc3)nc3c2CCN(Cc2ccccc2)C3)cc1 = > 10 µM

###

These compounds were tested on rat 5-HT7a receptor (Rattus norvegicus, UniProt P32305); Ki is the recorded read-out.
Sequence (P32305 whole entry): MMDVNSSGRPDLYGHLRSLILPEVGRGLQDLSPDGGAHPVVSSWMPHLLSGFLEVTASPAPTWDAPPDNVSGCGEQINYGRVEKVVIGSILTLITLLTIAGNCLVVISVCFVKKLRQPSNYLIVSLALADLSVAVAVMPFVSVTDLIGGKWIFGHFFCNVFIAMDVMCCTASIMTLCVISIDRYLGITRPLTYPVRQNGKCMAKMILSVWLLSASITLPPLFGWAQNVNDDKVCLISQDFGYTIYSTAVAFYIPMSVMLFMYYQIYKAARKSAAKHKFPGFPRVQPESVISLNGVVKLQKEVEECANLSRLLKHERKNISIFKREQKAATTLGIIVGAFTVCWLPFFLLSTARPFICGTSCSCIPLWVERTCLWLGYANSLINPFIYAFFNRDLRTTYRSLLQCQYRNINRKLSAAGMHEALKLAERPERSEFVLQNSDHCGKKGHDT
Counter-ions that a name gives are not always drawn.

COMPOUND	Ki
Cc1ccc(-c2nc(C3CCC3)nc3c2CNCC3)cc1 [Example 6]	> 10000 nM
CN(C)CCc1cc(-c2ccc(F)cc2)nc(C(C)(C)C)n1 [Example 167]	450 nM
CCC(C)c1nc2c(c(-c3ccccc3F)n1)CNCC2 (centres unmarked) [Example 42, hydrochloride]	> 10000 nM
CCC(C)c1nc2c(c(-c3ccc(C)cc3)n1)CNCC2 (centres unmarked) [Example 4, hydrochloride]	> 10000 nM
COc1ccc(-c2nc(Cc3ccccc3)nc3c2CCNC3)cc1 [Example 79]	300 nM

Ki measured on Cc1nc2c(c(-c3ccc(Cl)cc3)n1)CCNCC2 [Example 51] = > 10000 nM

Ki measured on Cc1ccc(-c2nc(Cc3ccccc3)nc3c2CCNC3)cc1 [Example 77, hydrochloride] = 22 nM

Ki measured on Fc1ccc(-c2nc(C3CCCC3)nc3c2CCNCC3)cc1 [Example 46] = 120 nM

Ki measured on CC(C)Cc1nc2c(c(-c3ccc(C#N)cc3)n1)CNCC2 [Example 40] = > 10000 nM

Ki measured on Fc1ccc(-c2nc(Cc3ccccc3)nc3c2CCN(Cc2ccccc2)C3)cc1 [Example 70, hydrochloride] = > 10000 nM

Ki measured on CNC1CCc2c(nc(C(C)C)nc2-c2ccc(F)cc2)C1 (centres unmarked) [Example 108, hydrochloride] = > 10000 nM

Ki measured on COc1ccc(-c2nc(C3CCCC3)nc3c2CCN(C)CC3)cc1 [Example 60] = 400 nM

Ki measured on CC(C)c1nc2c(c(-c3ccc(F)cc3)n1)CCN(Cc1ccccc1)C2 [Example 74] = > 10000 nM

Ki measured on CN1CCc2nc(Cc3ccc(F)cc3)nc(-c3ccc(C#N)cc3)c2C1 [Example 15] = > 10000 nM
